biological target: Nuclear respiratory factor 1 (Homo sapiens) (UniProt Q16656); assay: ATG_NRF1_CIS: Attagene CIS-FACTORIAL HepG2 Assay for human Nuclear Respiratory Factor 1 (NRF1) Orphan Gene (AID 2282987); conditions: HepG2 NRF1 cis-element reporter, Attagene multiplex; actives raise or lower the signal
Sequence (Q16656 whole entry, looked up): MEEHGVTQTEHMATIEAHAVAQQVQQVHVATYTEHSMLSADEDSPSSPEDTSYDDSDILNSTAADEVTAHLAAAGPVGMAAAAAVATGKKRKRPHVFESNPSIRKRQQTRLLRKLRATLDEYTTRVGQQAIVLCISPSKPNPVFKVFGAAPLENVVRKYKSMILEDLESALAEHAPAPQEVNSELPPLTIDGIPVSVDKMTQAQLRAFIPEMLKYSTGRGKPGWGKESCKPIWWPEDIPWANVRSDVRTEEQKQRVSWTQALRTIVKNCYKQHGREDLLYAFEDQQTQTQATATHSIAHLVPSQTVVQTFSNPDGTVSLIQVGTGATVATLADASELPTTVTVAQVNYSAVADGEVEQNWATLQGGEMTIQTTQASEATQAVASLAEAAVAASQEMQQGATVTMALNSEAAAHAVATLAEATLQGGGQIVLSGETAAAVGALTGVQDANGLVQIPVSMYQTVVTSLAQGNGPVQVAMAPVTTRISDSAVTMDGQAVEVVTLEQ
Calls of active or inactive are those of the source. How the source made its calls: active means hit-call score of the fitted dose curve at least 0.9, where 1 is the maximum; inactive means score below 0.9.
Permitted responses: active, inactive

Before answering, review these 2 worked examples.
[
  {
    "Compound": "ClC(Cl)c1ccccc1",
    "Tgt": "Nuclear respiratory factor 1 (Homo sapiens) (UniProt Q16656)",
    "Discrete label": "inactive"
  },
  {
    "Compound": "O=C(CBr)OCc1ccccc1",
    "Tgt": "Nuclear respiratory factor 1 (Homo sapiens) (UniProt Q16656)",
    "Discrete label": "inactive"
  }
]

Test call for this compound, please: Cc1cc(C)c(C(=O)P(=O)(c2ccccc2)c2ccccc2)c(C)c1 inactive

Name the outcome recorded for Cc1c([N+](=O)[O-])cc2c(c1[N+](=O)[O-])C(C)(C)CC2(C)C in the assay. inactive

Please indicate how the test categorized CCCCCCCc1ccc(O)cc1 . inactive

Source of measurements: PubChem BioAssay (EPA / NIEHS)
